The origin of these recorded values is patent US20110059889A1.

# experimental-system: T1, soluble human FcRn (shFcRn) (human, UniProt P55899 24-297; P61769 21-119)
# T1 construct: Biotinylated for the ELISA, amine-coupled to a CM5 chip for SPR; also called biotinylated shFcRn
# T1 sequence (P55899 24-297 limits assumed, chain 1 of 2): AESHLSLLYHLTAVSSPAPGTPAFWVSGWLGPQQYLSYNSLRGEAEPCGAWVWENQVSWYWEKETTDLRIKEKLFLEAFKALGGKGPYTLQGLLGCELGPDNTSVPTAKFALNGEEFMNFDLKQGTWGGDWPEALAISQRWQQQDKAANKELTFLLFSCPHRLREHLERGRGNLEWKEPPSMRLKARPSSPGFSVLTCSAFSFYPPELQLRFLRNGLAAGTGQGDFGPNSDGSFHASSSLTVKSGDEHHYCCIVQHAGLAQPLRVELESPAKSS
# T1 sequence (P61769 21-119 limits assumed, chain 2 of 2): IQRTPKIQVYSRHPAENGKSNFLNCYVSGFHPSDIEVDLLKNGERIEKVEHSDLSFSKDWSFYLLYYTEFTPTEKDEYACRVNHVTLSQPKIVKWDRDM
# assay-text: SPR pH 6; 4-PiperidylAla in place of His

# binder, Kd (µM)
measured = [
    ("RFCTGXFGGLYPC (Pen 3; 4-PiperidylAla 6; Sar 9; NMeLeu 10; disulfide 3-13; C-terminal amide) [Peptide No. 264]", 5.2),
]
